- System Under Test: Lp-PLA2 (Homo sapiens)
- Construct: aliquoted and thawed 40 μL of pooled human plasma was previously added; from tissue; host or cells: pooled human plasma
- Experiment Notes: Lipoprotein-associated phospholipase A2 (Lp-PLA2) human plasma assay (Thio-PAF assay)
- Format: biochemical
- Condition Description: Lp-PLA2 human plasma assay (Thio-PAF), pooled human plasma, 30-min pre-incubation at room temperature
Result Type: IC50 (nM)
Express your answer in nM, writing the number without its unit.

Under Lp-PLA2 (Homo sapiens): report IC50 of COc1c(CCc2ccc(Oc3ccnc(C(F)(F)F)c3)cc2)nc(=O)n2c1N1C[C@@H]3C[C@]1(CO3)C2 [Example 170] .
178

Under Lp-PLA2 (Homo sapiens): report IC50 of CC12CCCCN1c1cc(OCc3ccc(F)c(F)c3)nc(=O)n1C2 (stereo not shown) [Example 74] .
22.3

Under Lp-PLA2 (Homo sapiens): report IC50 of CC12COCCN1c1cc(OCc3cc(F)c(Oc4cncc(C(F)(F)F)c4)c(F)c3)nc(=O)n1C2 (stereo not shown) [Example 80] .
3.3

Under Lp-PLA2 (Homo sapiens): report IC50 of N#Cc1cc(COc2cc3n(c(=O)n2)C[C@@]24CO[C@@H](CN32)C4)ccc1Oc1ccnc(C(F)(F)F)c1 [Example 110] .
5.3

Under Lp-PLA2 (Homo sapiens): report IC50 of O=c1nc(OCc2cc(F)c(Oc3ccnc(OC(F)(F)F)c3)c(F)c2)cc2n1C[C@]13CO[C@H](CN21)C3 [Example 5] .
4.2

Under Lp-PLA2 (Homo sapiens): report IC50 of O=c1nc(OCc2cc(F)c(Oc3cnc(C(F)(F)F)nc3)c(F)c2)cc2n1C[C@]13CO[C@H](CN21)C3 [Example 7] .
2.5

Under Lp-PLA2 (Homo sapiens): report IC50 of Cn1cc(Oc2c(F)cc(COc3cc4n(c(=O)n3)CC35CCC(CC3)N45)cc2F)cn1 [Example 48] .
62.8

* * *

- System Under Test: Lp-PLA2 (Homo sapiens)
- Construct: aliquoted and thawed 40 μL of pooled human plasma was previously added; from tissue; host or cells: pooled human plasma
- Experiment Notes: Lipoprotein-associated phospholipase A2 (Lp-PLA2) human plasma assay (Thio-PAF assay)
- Format: biochemical
- Condition Description: Lp-PLA2 human plasma assay (Thio-PAF), pooled human plasma, 30-min pre-incubation at room temperature
Result Type: IC50
Your reply should be a number followed by the unit it is expressed in.

Determine from records and report IC50 for O=c1nc(OCc2ccc(Oc3ccnc(C(F)(F)F)c3)c(F)c2)cc2n1CC13CC(CCN21)C3
3.1 nM

Determine from records and report IC50 for N#Cc1cc(COc2cc3n(c(=O)n2)C[C@]24CO[C@H](CN32)C4)ccc1Oc1ccc(Cl)c(C(F)(F)F)c1
3.5 nM

Determine from records and report IC50 for O=c1nc(OCc2ccc(Oc3ccnc(C(F)(F)F)c3)c(F)c2)cc2n1CC13CC(CN21)C3
5.7 nM

Determine from records and report IC50 for N#Cc1cc(CCOc2cc3n(c(=O)n2)C[C@]24CO[C@H](CN32)C4)ccc1Oc1ccnc(C(F)(F)F)c1
15.1 nM

Determine from records and report IC50 for COc1c(OCCc2cc(F)c(Oc3ccnc(C(F)(F)F)c3)c(F)c2)nc(=O)n2c1N1CC3CC1(C3)C2
8.6 nM

Determine from records and report IC50 for O=c1nc(OCc2ccc(Oc3ccnc(C(F)(F)F)c3)c(F)c2)cc2n1CC13CCC(CC1)N23 [Example 149]
4.1 nM

Determine from records and report IC50 for N#Cc1cc(Oc2ccc(COc3cc4n(c(=O)n3)C[C@@]35CO[C@@H](CN43)C5)cc2F)cc(C(F)(F)F)c1
7.1 nM

Determine from records and report IC50 for O=c1nc(OCc2cc(F)c(Oc3ccc(C(F)(F)F)nc3)c(F)c2)cc2n1C[C@@]13CO[C@@H](CN21)C3
6.8 nM

Determine from records and report IC50 for O=c1nc(OCc2cc(F)c(Oc3ccnc(C(F)(F)F)c3)c(F)c2)cc2n1CC13CCC(CC1)N23
15.3 nM

Determine from records and report IC50 for CCC12CCCCN1c1cc(OCc3cc(F)c(Oc4ccc(C(F)(F)F)nc4)c(F)c3)nc(=O)n1C2 (centres unmarked)
42.2 nM

Determine from records and report IC50 for COc1c(OCc2cc(F)c(F)c(F)c2)nc(=O)n2c1N1C[C@@H]3C[C@]1(CO3)C2
5.7 nM

Determine from records and report IC50 for N#Cc1cc(COc2cc3n(c(=O)n2)CC24CC(F)(CN32)C4)ccc1F
3.8 nM

Determine from records and report IC50 for O=c1nc(OCc2ccc(Oc3cncc(C(F)(F)F)c3)c(F)c2)cc2n1CC13CC(CN21)C3
4.3 nM

Determine from records and report IC50 for CC12COCCN1c1cc(OCc3ccc(Oc4ccc(Cl)c(C(F)(F)F)c4)c(C#N)c3)nc(=O)n1C2 (centres unmarked)
6.2 nM

Determine from records and report IC50 for O=c1nc(OCc2cc(F)c(Oc3cccc(OC(F)(F)F)c3)c(F)c2)cc2n1C[C@]13CO[C@H](CN21)C3
4.3 nM

Determine from records and report IC50 for O=c1nc(OCc2ccc(Oc3cccc(C(F)(F)F)c3)c(F)c2)cc2n1C[C@]13CO[C@H](CN21)C3
6.3 nM

Determine from records and report IC50 for Cn1cc(Oc2c(F)cc(COc3cc4n(c(=O)n3)C[C@]35CO[C@H](CN43)C5)cc2F)cn1
10.8 nM

Determine from records and report IC50 for CC12COCCN1c1cc(OCc3cc(F)c(Oc4ccnc(C(F)(F)F)c4)c(F)c3)nc(=O)n1C2 (centres unmarked)
5 nM

Determine from records and report IC50 for CCC12CCCN1c1cc(OCc3cc(F)c(Oc4cnc(C(F)(F)F)nc4)c(F)c3)nc(=O)n1C2 (centres unmarked)
22.6 nM

Determine from records and report IC50 for O=c1nc(OCc2cc(F)c(Oc3ccnc(C(F)(F)F)c3)c(F)c2)c(Cl)c2n1C[C@]13CO[C@H](CN21)C3
4.8 nM

Determine from records and report IC50 for COc1c(OCc2cc(F)c(Oc3ccnc(C(F)(F)F)c3)c(F)c2)nc(=O)n2c1N1C[C@@H]3C[C@]1(CO3)C2
1 nM

Determine from records and report IC50 for CC12CCCN1c1cc(OCc3ccc(Oc4cccc(C(F)(F)F)c4)c(C#N)c3)nc(=O)n1C2 (centres unmarked)
2.4 nM

Determine from records and report IC50 for N#Cc1cc(COc2cc3n(c(=O)n2)CC24CCC(CC2)N34)ccc1Oc1ccc(Cl)c(C(F)(F)F)c1
2.7 nM

Determine from records and report IC50 for CC12CCCN1c1cc(OCc3cc(F)c(Oc4cnc(C(F)(F)F)nc4)c(F)c3)nc(=O)n1C2 (centres unmarked)
7.7 nM

Determine from records and report IC50 for Cn1cc(Oc2c(F)cc(COc3cc4n(c(=O)n3)CC3(C)CCCCN43)cc2F)cn1 (centres unmarked)
50 nM

Determine from records and report IC50 for CC12CCCCN1c1cc(OCc3ccc(Oc4ccc(Cl)c(F)c4)c(C#N)c3)nc(=O)n1C2 (centres unmarked)
7.6 nM

Determine from records and report IC50 for O=c1nc(OCc2cc(F)c(Oc3ccnc(C(F)(F)F)c3)c(F)c2)cc2n1C[C@@]13CO[C@@H](CN21)C3
5.5 nM

Determine from records and report IC50 for N#Cc1cc(COc2cc3n(c(=O)n2)C[C@@]24CO[C@@H](CN32)C4)ccc1Oc1cccc(C(F)(F)F)c1
6 nM

Determine from records and report IC50 for O=c1nc(OCCc2ccc(Oc3ccc(Cl)c(C(F)(F)F)c3)c(F)c2)cc2n1C[C@]13CO[C@H](CN21)C3
4.7 nM

* * *

- System Under Test: Lp-PLA2 (Homo sapiens, UniProt Q13093)
- Construct: aliquoted and thawed 40 μL of pooled human plasma was previously added; from tissue; host or cells: pooled human plasma
- Sequence (Q13093 22-441): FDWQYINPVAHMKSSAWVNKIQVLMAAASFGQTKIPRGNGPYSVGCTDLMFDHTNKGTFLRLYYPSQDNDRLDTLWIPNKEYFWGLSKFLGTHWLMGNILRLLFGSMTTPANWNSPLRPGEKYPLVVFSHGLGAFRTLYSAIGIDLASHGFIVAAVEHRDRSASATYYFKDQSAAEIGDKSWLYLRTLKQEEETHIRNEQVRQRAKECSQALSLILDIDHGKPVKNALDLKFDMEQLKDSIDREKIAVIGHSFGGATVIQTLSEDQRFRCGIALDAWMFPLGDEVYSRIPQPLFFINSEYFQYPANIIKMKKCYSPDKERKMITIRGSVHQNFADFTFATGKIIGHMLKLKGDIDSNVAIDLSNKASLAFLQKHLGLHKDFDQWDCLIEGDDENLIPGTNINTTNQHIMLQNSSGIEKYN
- Experiment Notes: Lipoprotein-associated phospholipase A2 (Lp-PLA2) human plasma assay (Thio-PAF assay)
- Format: biochemical
- Condition Description: Lp-PLA2 human plasma assay (Thio-PAF), pooled human plasma, 30-min pre-incubation at room temperature
Exercise: state measured IC50 for each of the compounds provided.
Express your answer in nM, writing the number without its unit.

Determine from records and report IC50 for CCC12CCCCN1c1cc(OCc3ccc(Oc4cccc(C(F)(F)F)c4)c(C#N)c3)nc(=O)n1C2 (stereo not shown) [Example 77]
5.7

Determine from records and report IC50 for O=c1nc(OCc2cc(F)c(Oc3ccnc(C(F)F)c3)c(F)c2)cc2n1CC13CC(CN21)C3 [Example 176]
13.9

Determine from records and report IC50 for COc1c(OCCc2ccc(Oc3cccc(C(F)(F)F)c3)c(F)c2)nc(=O)n2c1N1CC3CC1(C3)C2 [Example 183]
13.8

Determine from records and report IC50 for N#Cc1cc(COc2cc3n(c(=O)n2)C[C@@]24CO[C@@H](CN32)C4)ccc1Oc1ccc(C(F)(F)F)cc1 [Example 34]
3.6

Determine from records and report IC50 for O=c1nc(OCCc2cc(F)c(Oc3ccnc(C(F)(F)F)c3)c(F)c2)cc2n1CC13CC(CN21)C3 [Example 169]
4.9

Determine from records and report IC50 for Cn1ccc(CN2C(=O)[C@]34C[C@H]2CN3c2cc(OCc3ccc(Oc5ccnc(C(F)(F)F)c5)c(F)c3)nc(=O)n2C4)n1 [Example 197]
2.9

Determine from records and report IC50 for O=c1nc(OCc2ccc(Oc3cnc(C(F)(F)F)nc3)c(F)c2)cc2n1CC13CC(CN21)C3 [Example 122]
9.4
